# tgt: ARHGEF12, Q9NZN5-2
# Sequence (Q9NZN5 other isoform, or with tags, fused parts or gaps): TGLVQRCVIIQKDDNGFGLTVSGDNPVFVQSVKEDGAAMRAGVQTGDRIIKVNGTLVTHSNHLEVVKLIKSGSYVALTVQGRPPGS
# assay explanation: holdup assay
# Design: key: below the threshold = too weak to quantify, mostly under pKd 3.1 to 4
# experimental conditions: plain residues with an end cap or a label only (N-terminal biotin on a linker: ado-ado)
observation type: pKd

VYPNAKVELV [PDLIM4_iso2, P50479;P50479-1]	below the threshold
PLSPEQPTKL [TRIM50, Q86XT4]	below the threshold
IPLDGETEEL [MYOZ1, Q9NP98]	below the threshold

Data provenance: paper PMC9482650
